Origin of values: ChEMBL document CHEMBL1152891

Collected Vd values appear next to each entry.
test: Volume of distribution at steady state in rat at 0.5 mg, iv; type: ADME, organism-based; details: in vivo, read-out: Vdss

| MOL SMILES | Vd / L/kg |
| --- | --- |
| O=C(Cn1cnc(NC(=O)c2ccc(Cl)s2)n1)Nc1ccc(-n2ccccc2=O)cc1F | 0.3 |
| O=C(CN1C[C@H](NC(=O)c2ccc(Cl)s2)[C@@H](O)C1)Nc1ccc(-n2ccccc2=O)cc1F | 1.1 |

====

Collected solubility values appear next to each entry.
test: Aqueous solubility of the compound; format: physicochemical; settings: aqueous; read-out: solubility

| MOL SMILES | solubility |
| --- | --- |
| O=C(Nc1nc(CC(=O)N2CCN(CC(=O)N3CCCC3)CC2)cs1)c1ccc(Cl)s1 | > 640 µg/mL |
| O=C(Cn1ccc(NC(=O)c2ccc(Cl)s2)n1)Nc1ccc(-n2ccccc2=O)cc1F | < 1 µg/mL |
| O=C(Cc1csc(NC(=O)c2ccc(Cl)cc2)n1)Nc1ccc(-n2ccccc2=O)cc1F | < 1 µg/mL |
| O=C(Nc1nc(CC(=O)N2CCN(CC(=O)N3CCCC3)CC2)cs1)c1ccc(Cl)cc1 | > 580 µg/mL |
| O=C(Cc1csc(NC(=O)c2ccc(Cl)s2)n1)Nc1ccc(-n2ccccc2=O)cc1F | < 1 µg/mL |
